The reported numbers originate from the supplement of paper PMC7125110.

I'd be grateful if you could share measured self-cleavage kobs at 40 uM GlcN6P for these entries.
B1: glmS ribozyme (parent)
chain: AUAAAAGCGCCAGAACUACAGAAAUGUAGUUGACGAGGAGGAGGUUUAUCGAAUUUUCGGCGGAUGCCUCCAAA

# Variants of: B1
# MEASUREMENT PROTOCOL: self-cleavage kobs at 40 uM GlcN6P; higher = faster cleavage; RNA array
# CONDITION DESCRIPTION: with glucosamine-6-phosphate
Fewer inactive variants are shown than the library holds.
Express it in s⁻¹; write the number only.

Give recorded self-cleavage kobs at 40 uM GlcN6P. A14U C50G C67U
0.00027

Give recorded self-cleavage kobs at 40 uM GlcN6P. A36U C70G
3.74e-05

Give recorded self-cleavage kobs at 40 uM GlcN6P. A14C U47G
2.31e-05

Give recorded self-cleavage kobs at 40 uM GlcN6P. G32A A42G A64G
3.12e-05

Give recorded self-cleavage kobs at 40 uM GlcN6P. A15C G41A C70U
0.000261

Give recorded self-cleavage kobs at 40 uM GlcN6P. G40U A53C
4.37e-05

Give recorded self-cleavage kobs at 40 uM GlcN6P. U46G U65A C71U
4.68e-05

Give recorded self-cleavage kobs at 40 uM GlcN6P. G40C C70U C71G
0.000192

Give recorded self-cleavage kobs at 40 uM GlcN6P. C11U C67G
2.61e-05

Give recorded self-cleavage kobs at 40 uM GlcN6P. C8U C10U C70G
5.14e-05

Give recorded self-cleavage kobs at 40 uM GlcN6P. `U55G`
0.000889

Give recorded self-cleavage kobs at 40 uM GlcN6P. C16G G29U U54A
0.000213

Give recorded self-cleavage kobs at 40 uM GlcN6P. C16G U31G
4.37e-05

Give recorded self-cleavage kobs at 40 uM GlcN6P. A14G C50G C71U
0.000639

Give recorded self-cleavage kobs at 40 uM GlcN6P. G7A G29C U57G C70G
0.000158

Give recorded self-cleavage kobs at 40 uM GlcN6P. U30A U46G
4.09e-05
